# Test system: HIV/H5N1 pseudovirus
# Assay type: cell-based, influenza A virus A/Goose/Qinghai/59/05 (H5N1)
# Protocol conditions: read-out: IC50 HIV/H5N1

{"Compound": "CC(C)N1CCC(NC(=O)c2ccc(Cl)cc2Cl)CC1", "IC50 (µM)": 3.9}

###

# System: A549 cells
# Assay comment: Cell viability assay
# Protocol conditions: 48 h, CellTiter-Glo

{"Compound": "CC(C)N1CCC(NC(=O)c2c(Cl)cccc2Cl)CC1", "Output unit": "µM", "CC50": 274}
